Target: T1, human VEGF (hVEGF) (human, UniProt P15692 181-395)
T1 construct: also called VEGF-A
T1 sequence: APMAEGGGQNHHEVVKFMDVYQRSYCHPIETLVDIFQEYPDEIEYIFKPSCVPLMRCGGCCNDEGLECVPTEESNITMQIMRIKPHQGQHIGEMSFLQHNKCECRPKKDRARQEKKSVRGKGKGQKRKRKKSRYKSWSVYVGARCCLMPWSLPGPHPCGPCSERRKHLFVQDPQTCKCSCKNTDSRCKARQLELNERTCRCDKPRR
Assay: SPR single-cycle;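 note: fab variants injected over hVEGF immobilized on a CM5 chip (Biacore T200), threefold dilution series from 0.02 to 50 nM, kinetics fitted with a 1:1 Langmuir model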
PROPERTY_MEASURED: kon (M⁻¹ s⁻¹)
Provide only the numeric value, understood in M⁻¹ s⁻¹.

Some binders with known kon results, for comparison:
G6.31 HC-S74E (Fab, name in Kabat numbering, V domains shown, Fab) VH: EVQLVESGGGLVQPGGSLRLSCAASGFTISDYWIHWVRQAPGKGLEWVAGITPAGGYTYYADSVKGRFTISADTEKNTAYLQMNSLRAEDTAVYYCARFVFFLPYAMDYWGQGTLVTVSS VL: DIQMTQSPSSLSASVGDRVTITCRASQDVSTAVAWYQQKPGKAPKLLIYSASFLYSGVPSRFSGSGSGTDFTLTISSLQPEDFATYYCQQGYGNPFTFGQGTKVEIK    236000
G6.31 LC-G93E (Fab, V domains shown, Fab) VH: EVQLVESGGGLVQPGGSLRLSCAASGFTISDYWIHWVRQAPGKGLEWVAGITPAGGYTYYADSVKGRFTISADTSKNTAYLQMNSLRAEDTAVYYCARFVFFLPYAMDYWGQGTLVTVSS VL: DIQMTQSPSSLSASVGDRVTITCRASQDVSTAVAWYQQKPGKAPKLLIYSASFLYSGVPSRFSGSGSGTDFTLTISSLQPEDFATYYCQQGYENPFTFGQGTKVEIK    248000
G6.31 LC-Y92E (Fab, V domains shown, Fab) VH: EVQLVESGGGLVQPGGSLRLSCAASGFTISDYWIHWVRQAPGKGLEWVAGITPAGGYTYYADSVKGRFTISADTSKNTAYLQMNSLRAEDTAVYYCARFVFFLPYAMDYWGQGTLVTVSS VL: DIQMTQSPSSLSASVGDRVTITCRASQDVSTAVAWYQQKPGKAPKLLIYSASFLYSGVPSRFSGSGSGTDFTLTISSLQPEDFATYYCQQGEGNPFTFGQGTKVEIK    497000
G6.31 HC-Y58E (Fab, name in Kabat numbering, V domains shown, Fab) VH: EVQLVESGGGLVQPGGSLRLSCAASGFTISDYWIHWVRQAPGKGLEWVAGITPAGGYTEYADSVKGRFTISADTSKNTAYLQMNSLRAEDTAVYYCARFVFFLPYAMDYWGQGTLVTVSS VL: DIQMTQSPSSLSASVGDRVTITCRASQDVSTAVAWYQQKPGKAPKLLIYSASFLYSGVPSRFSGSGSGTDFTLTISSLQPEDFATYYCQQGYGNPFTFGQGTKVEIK    820000

Here is the next item to consider.
Record G6.31 LC-Q27E (Fab, V domains shown, Fab) VH: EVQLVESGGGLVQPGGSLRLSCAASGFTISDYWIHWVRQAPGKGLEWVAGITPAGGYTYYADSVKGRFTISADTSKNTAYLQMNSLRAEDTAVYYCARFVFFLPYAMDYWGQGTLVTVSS VL: DIQMTQSPSSLSASVGDRVTITCRASEDVSTAVAWYQQKPGKAPKLLIYSASFLYSGVPSRFSGSGSGTDFTLTISSLQPEDFATYYCQQGYGNPFTFGQGTKVEIK . Reported kon: 230000
